- System: NCI-H322M lung
- Run description: NCI-60 one-dose screen, 48 h
- Condition summary: 10 µM unless noted
This is part of a sample that, as a whole, favours compounds with a hit. Of some 83,000 tested, about 20% had one in any assay. Activity calls are given as the source filed them. The calls were made as follows: active = growth percent below 10; inactive = the rest.
Give your call using only these classes: Y = active, N = inactive

Look over these answered cases.
Compound: O=C1NC(=O)C(=Cc2cn(CCCCCCn3c4ccccc4c(=O)c4ccccc43)c3ccccc23)C(=O)N1
Label: N
--
Compound: Cc1ccc2c(C(C[N+](=O)[O-])c3cccs3)c(-c3ccccc3)[nH]c2c1 (stereo not drawn)
Label: N
--
Compound: CCCCN1CCCC[C@@H]1C(=O)N[C@H](C(=O)N(C)[C@H](CCc1nc(C(=O)N[C@@H](Cc2ccccc2)C[C@H](C)C(=O)OC)cs1)C(C)C)[C@@H](C)CC
Label: N
--
Compound: COC(=O)[C@@H](C)C[C@H](Cc1ccccc1)NC(=O)c1cccc([C@@H](C[C@H](C(C)C)N(C)C(=O)[C@@H](NC(=O)[C@H]2CCCCN2C)C(C)C)OC(C)=O)n1
Label: N

## Input What was the test verdict on CCC1CN1CCCCN1CC1CC (stereo not drawn) ?
## Output N

## Input What was the test verdict on COC(=O)[C@@H](C)C[C@H](Cc1ccc2ccccc2c1)NC(=O)c1csc([C@@H](C[C@H](C(C)C)N(C)C(=O)[C@@H](NC(=O)[C@H]2CCCCN2C)C(C)C)OC(C)=O)n1 ?
## Output N

## Input What was the test verdict on CCCCOc1ccc(C(N)Cc2ccccc2)cc1 (stereo not drawn) ?
## Output N

## Input What was the test verdict on COc1cc2c(cc1OCCCCCn1c(-c3ccco3)nc3ccccc31)N=C[C@@H]1CCCN1C2=O ?
## Output Y

## Input What was the test verdict on CC1=C(CCCNS(C)(=O)=O)C2=C(C)C3(CC3)[C@@](C)(O)C(=O)C2=C1 ?
## Output Y

## Input What was the test verdict on O=C(CCCCCNC1=CC(=O)c2ccccc2C1=O)NCCC[Te]c1ccccc1 ?
## Output Y

## Input What was the test verdict on Fc1c[c-]c(-c2ccccn2)c(F)c1.[CH3-].[Pt+2].c1ccc([PH+](c2ccccc2)c2ccccn2)cc1 ?
## Output N

## Input What was the test verdict on CCCCCCCCOC(=O)CCN1CC1 ?
## Output N

## Input What was the test verdict on Nc1ncnc2n[nH]nc12 ?
## Output N

----------
- Tested on: UACC-62 melanoma
- Run description: NCI-60 one-dose screen, 48 h
- Condition summary: 10 µM unless noted
About 83,000 compounds went through this panel and 20% of them were active in at least one assay; those are over-represented in the sample as a whole. The source made the active and inactive calls. Rule for the calls: active = growth percent below 10; inactive = the rest.
Give your call using only these classes: True for active, False for inactive

Compound: CC[C@H](C)[C@H](NC(=O)N[C@@H](C)c1ccccc1)C(=O)N(C)[C@H](C[C@@H](OC(C)=O)c1nc(C(=O)N[C@@H](Cc2ccccc2)C[C@H](C)C(=O)OC)cs1)C(C)C
Label: False

## Input What was the test verdict on COc1ccc(-n2c(C)nc3cc(OC)c(OC)cc3c2=O)cc1OC ?
## Output False

## Input What was the test verdict on Cc1ccc(C(=O)NCCCOc2ccc(N)cc2Cl)cc1S(=O)(=O)F ?
## Output False

## Input What was the test verdict on CC1(C)N=C(N)N=C(N)N1c1cccc(CCCCc2ccc(Cl)c(S(=O)(=O)F)c2)c1 ?
## Output False

## Input What was the test verdict on CCOC(=O)c1c(C)n(Cc2ccccc2)c2cc(CN(C)C)c(O)cc12 ?
## Output False

## Input What was the test verdict on COC(C(=O)[C@@H](O)[C@@H](C)O)[C@@H]1Cc2cc3cc(O[C@H]4C[C@@H](O[C@H]5C[C@@H](O)[C@H](O)C(C)O5)[C@H](O)C(C)O4)c(C)c(O)c3c(O)c2C(=O)[C@H]1O[C@H]1C[C@@H](O[C@H]2C[C@@H](O[C@H]3C[C@@H](O)[C@@H](O)C(C)O3)[C@@H](O)C(C)O2)[C@H](O)C(C)O1 (some centres not stated) ?
## Output True

## Input What was the test verdict on COC(=O)[C@@H](C)C[C@H](Cc1ccccc1)NC(=O)c1csc([C@@H](C[C@H](C(C)C)N(C)C(=O)[C@@H](NC(=O)[C@H]2CCCCN2C)C(C)C)OC(C)=O)n1 ?
## Output False
